Target: human mGlu5 (Homo sapiens, UniProt P41594)
Sequence (P41594 21-1212): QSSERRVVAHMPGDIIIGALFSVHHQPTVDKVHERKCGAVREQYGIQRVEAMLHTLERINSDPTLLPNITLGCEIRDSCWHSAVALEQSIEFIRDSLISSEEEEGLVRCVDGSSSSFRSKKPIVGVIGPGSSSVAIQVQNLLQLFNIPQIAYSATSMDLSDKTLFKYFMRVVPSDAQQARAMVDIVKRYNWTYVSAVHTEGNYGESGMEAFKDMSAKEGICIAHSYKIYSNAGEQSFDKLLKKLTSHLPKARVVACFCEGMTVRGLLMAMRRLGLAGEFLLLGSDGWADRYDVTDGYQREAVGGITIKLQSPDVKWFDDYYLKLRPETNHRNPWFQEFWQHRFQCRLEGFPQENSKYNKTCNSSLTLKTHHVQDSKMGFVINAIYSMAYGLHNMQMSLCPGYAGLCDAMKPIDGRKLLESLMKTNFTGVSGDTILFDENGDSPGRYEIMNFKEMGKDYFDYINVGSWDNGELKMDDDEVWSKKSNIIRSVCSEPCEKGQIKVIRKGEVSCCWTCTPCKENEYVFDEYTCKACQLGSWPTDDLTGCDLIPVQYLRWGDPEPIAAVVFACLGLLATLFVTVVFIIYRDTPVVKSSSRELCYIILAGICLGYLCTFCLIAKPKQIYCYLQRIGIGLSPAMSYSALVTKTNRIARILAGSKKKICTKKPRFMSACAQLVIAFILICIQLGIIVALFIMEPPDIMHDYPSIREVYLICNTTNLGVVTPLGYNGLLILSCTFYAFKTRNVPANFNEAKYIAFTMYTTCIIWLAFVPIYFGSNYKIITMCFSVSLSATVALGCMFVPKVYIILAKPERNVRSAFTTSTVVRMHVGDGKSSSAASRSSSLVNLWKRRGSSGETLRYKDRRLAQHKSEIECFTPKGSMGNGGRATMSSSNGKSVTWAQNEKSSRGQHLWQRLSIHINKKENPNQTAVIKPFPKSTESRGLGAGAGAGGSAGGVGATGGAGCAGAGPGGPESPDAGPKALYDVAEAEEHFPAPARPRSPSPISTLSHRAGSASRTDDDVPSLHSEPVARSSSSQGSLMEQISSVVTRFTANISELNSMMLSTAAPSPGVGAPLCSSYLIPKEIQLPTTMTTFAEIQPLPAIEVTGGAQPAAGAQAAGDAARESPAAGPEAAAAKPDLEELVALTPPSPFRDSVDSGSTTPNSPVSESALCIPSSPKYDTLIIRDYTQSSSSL
Assay: mGlu5 negative allosteric modulator Ca2+ flux assay in HEK 293A cells (Table 1)
Conditions: HEK 293A cells stably expressing mGlu5; Ca2+ flux (Fluo-4); decrease of glutamate EC80 response; read-out: hmGlu5 NAM IC50
pIC50: −log10 of the molar value.
measured.parameter: pIC50

Here is how some molecules turned out for pIC50.
Ask: GET /values?readout=pIC50&item= Cc1cccc(NC(=O)c2cc(F)c(F)c(-c3ccnn3C)c2)n1
Result: 5.35

Ask: Query: pIC50; subject: Cc1ccncc1-c1ccc(F)c(C(=O)Nc2ccc(F)cn2)c1
Result: 5.97

Ask: Requested read-out: pIC50. Entry: Cc1ccncc1-c1cc(C#N)cc(C(=O)Nc2ccccn2)c1
Result: 5.92

a = Cc1ccncc1-c1cc(Cl)cc(C(=O)Nc2ccccn2)c1
b = O=C(Nc1ccc(F)cn1)c1cc(-c2cncc(F)c2)cc(F)c1F
Ask: From the items above, decide which of a and b has the lower pIC50 reading. Mark your answer with the label of the selected entry.
Result: a
(a: 6.48, b: 6.79)

A = Cc1cccc(NC(=O)c2cc(-c3cnccc3C)cc(F)c2F)n1
B = Cc1cccc(NC(=O)c2cc(F)c(F)c(-c3cncc(F)c3)c2)n1
C = Cc1ccncc1-c1ccc(F)c(C(=O)Nc2ccccn2)c1
D = Cc1ccncc1-c1cc(C(=O)Nc2ccc(F)cn2)c(F)cc1F
E = O=C(Nc1cccc(Cl)n1)c1cc(-c2cncc(F)c2)cc(F)c1F
Ask: Put the molecules in ascending order of pIC50. Answer by writing out the labels in the requested order.
Result: D, C, A, E, B

I = Cc1csc(NC(=O)c2cc(F)c(F)c(-c3cnccc3C)c2)n1
II = Cc1csc(NC(=O)c2cc(-c3cncc(F)c3)cc(F)c2F)n1
Ask: Which record would sort first by descending pIC50, I or II ? // respond with label for picked entry
Result: II
(II: 7.03, I: 6.36)

a = Cc1ccncc1-c1cc(C(=O)Nc2ccccn2)cc(C(F)(F)F)c1
b = Cc1csc(NC(=O)c2cc(-c3cnccc3C)cc(F)c2F)n1
Ask: pIC50 comparison. Which is larger, a or b ? Returns: label corresponding to the selected item.
Result: b
